System: A549-mRuby cells
assay-notes: Drug screening: effect on cell growth (cell number day 4 / day 0)
reported-conditions: 10 μM drug, repeat #2
Structures can show the parent of a compound that is named as a salt.
measurement-type: Growth_2: number of cells at day 4 divided by number of cells at day 0

{"columns": ["molecule", "reported-result"],
 "data": [
  ["CCC(=O)OCC(=O)[C@@]1(OC(=O)CC)[C@@H](C)C[C@H]2[C@@H]3CCC4=CC(=O)C=C[C@]4(C)[C@@]3(Cl)[C@@H](O)C[C@@]21C [Beclomethasone dipropionate]", 4.6],
  ["O=C(Nc1ccccc1)OCC(CN1CCCCC1)OC(=O)Nc1ccccc1 (stereo not shown) [Diperodon HCl]", 4.4],
  ["CCCCCCCC(=O)N[C@H](CN1CCCC1)[C@H](O)c1ccc2c(c1)OCCO2", 4.8],
  ["C[C@@H]1[C@H](O)[C@@H](C)/C=C/C=C/CC/C=C/C=C/C=C/C=C/C(O[C@H]2O[C@H](C)[C@@H](O)[C@H](N)[C@@H]2O)CC2O[C@](O)(CC(O)C(O)CCC(O)CC(O)CC(O)CC(=O)O[C@H]1C)CC(O)C2C(=O)O (stereo partly shown)", 5.9]
]}

###

Tested on: A549-mRuby cells
assay-notes: Drug screening: effect on cell growth (cell number day 4 / day 0)
reported-conditions: 10 μM drug, repeat #1
Method: A549-mRuby cells were seeded (3,000 cells per well) in nine 384-well plates using Multidrop combi. Cells were seeded in a final volume of 30 μl with DMEM+10% BCS. The following day, 20 μl of OC43 were added (MOI 0.3) and incubated at 33° C., 5% CO2 for 1 hour. 50 nl from the Selleck FDA-approved drug library (cat #L1300, Selleck) were added (1:1,000 dilution). Two columns (32 wells) were left uninfected and two columns were treated with DMSO and virus (no drug control). […]
Structures can show the parent of a compound that is named as a salt.
List of Growth_1: number of cells at day 4 divided by number of cells at day 0 values.
measurement-type: Growth_1: number of cells at day 4 divided by number of cells at day 0

{"columns": ["compound", "reported-result"],
 "data": [
  ["CCC(=O)OCC(=O)[C@@]1(OC(=O)CC)[C@@H](C)C[C@H]2[C@@H]3CCC4=CC(=O)C=C[C@]4(C)[C@@]3(Cl)[C@@H](O)C[C@@]21C [Beclomethasone dipropionate]", 3.4],
  ["CCN(CCCc1ccccc1)CCCc1ccccc1 [Alverine Citrate]", 3.7],
  ["CN1CCC(=C2c3ccccc3C=Cc3ccccc32)CC1 [Cyproheptadine HCl]", 3.8],
  ["COc1cc2ncnc(Nc3ccc(F)c(Cl)c3)c2cc1OCCCN1CCOCC1 [Gefitinib (ZD1839), Gefitinib]", 3.4],
  ["O=C(O)CCC(=O)O.O=C(O[C@H]1CN2CCC1CC2)N1CCc2ccccc2[C@@H]1c1ccccc1 [Solifenacin succinate]", 5.0],
  ["COc1cc2nc(N3CCN(C(=O)C4COc5ccccc5O4)CC3)nc(N)c2cc1OC (stereo not shown) [Doxazosin Mesylate]", 5.2],
  ["CN1CCN(CCOc2cc(OC3CCOCC3)c3c(Nc4c(Cl)ccc5c4OCO5)ncnc3c2)CC1", 3.1],
  ["CC[C@H]1OC(=O)[C@H](C)[C@@H](O[C@H]2C[C@@](C)(OC)[C@@H](O)[C@H](C)O2)[C@H](C)[C@@H](O[C@@H]2O[C@H](C)C[C@H](N(C)C)[C@H]2O)[C@](C)(O)C[C@@H](C)/C(=N\\OCOCCOC)[C@H](C)[C@@H](O)[C@]1(C)O", 5.2],
  ["Cl.Cl.OCCN1CCN(CCC=C2c3ccccc3Sc3ccc(C(F)(F)F)cc32)CC1 (mixture of isomers) [Flupenthixol dihydrochloride]", 2.1],
  ["C[C@@H]1[C@H](O)[C@@H](C)/C=C/C=C/CC/C=C/C=C/C=C/C=C/C(O[C@H]2O[C@H](C)[C@@H](O)[C@H](N)[C@@H]2O)CC2O[C@](O)(CC(O)C(O)CCC(O)CC(O)CC(O)CC(=O)O[C@H]1C)CC(O)C2C(=O)O (stereo partly shown)", 4.6],
  ["N#Cc1ccc2[nH]cc(CCCCN3CCN(c4ccc5oc(C(N)=O)cc5c4)CC3)c2c1.O [Vilazodone HCl]", 3.5],
  ["CN1CCC(OC(c2ccccc2)c2ccccc2)CC1 [Diphenylpyraline HCl]", 6.0],
  ["OCc1cc(C(O)CNCCCCCCOCCCCc2ccccc2)ccc1O (stereo not shown) [Salmeterol Xinafoate]", 2.9],
  ["CN1CCN(CCCN2c3ccccc3Sc3ccc(Cl)cc32)CC1 [Prochlorperazine Dimaleate]", 3.1],
  ["CC(C)(O)CNc1nc(Nc2ccnc(C(F)(F)F)c2)nc(-c2cccc(C(F)(F)F)n2)n1", 5.2],
  ["O=C(O[C@H]1CN2CCC1CC2)N1CCc2ccccc2[C@@H]1c1ccccc1", 4.3]
]}

###

System: A549-mRuby cells
assay-notes: Drug screening: effect on cell growth (cell number day 4 / day 0)
reported-conditions: 10 μM drug, repeat #2
Experimental: A549-mRuby cells were seeded (3,000 cells per well) in nine 384-well plates using Multidrop combi. Cells were seeded in a final volume of 30 μl with DMEM+10% BCS. The following day, 20 μl of OC43 were added (MOI 0.3) and incubated at 33° C., 5% CO2 for 1 hour. 50 nl from the Selleck FDA-approved drug library (cat #L1300, Selleck) were added (1:1,000 dilution). Two columns (32 wells) were left uninfected and two columns were treated with DMSO and virus (no drug control). […]
Counter-ions that a name gives are not always drawn.
List of Growth_2: number of cells at day 4 divided by number of cells at day 0 values.
measurement-type: Growth_2: number of cells at day 4 divided by number of cells at day 0

{"columns": ["molecule", "reported-result"],
 "data": [
  ["Cc1ccccc1C(OCCN(C)C)c1ccccc1 (stereo not drawn) [Orphenadrine Hydrochloride]", 5.1],
  ["CN1CCN(CCOc2cc(OC3CCOCC3)c3c(Nc4c(Cl)ccc5c4OCO5)ncnc3c2)CC1", 4.0],
  ["CN1C2CCC1CC(OC(c1ccccc1)c1ccccc1)C2.CS(=O)(=O)O (stereo not drawn) [Benztropine mesylate]", 5.1],
  ["CN(C)CCCC1(c2ccc(F)cc2)OCc2cc(C#N)ccc21 (stereo not drawn)", 5.1],
  ["CC(N)C12CC3CC(CC(C3)C1)C2 (stereo not drawn) [Rimantadine Hydrochloride]", 5.1],
  ["CCN(CCCCOC(=O)c1ccc(OC)c(OC)c1)C(C)Cc1ccc(OC)cc1.O (stereo not drawn) [Mebeverine Hydrochloride]", 3.9]
]}
